The reported measurements were obtained from PubChem BioAssay (EPA / NIEHS).

read-out: Fatty acid synthase (Homo sapiens) (UniProt P49327); assay: LTEA_HepaRG_FASN: Life Technologies and Expression Analysis (LTEA) Assay for Fatty Acid Synthase (FASN) using HepaRG (AID 2283448); conditions: mRNA level, 48 h; actives raise or lower the signal;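 for AC50: differentiated human HepaRG liver cells in serum-free induction medium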
Sequence (P49327 whole entry, looked up): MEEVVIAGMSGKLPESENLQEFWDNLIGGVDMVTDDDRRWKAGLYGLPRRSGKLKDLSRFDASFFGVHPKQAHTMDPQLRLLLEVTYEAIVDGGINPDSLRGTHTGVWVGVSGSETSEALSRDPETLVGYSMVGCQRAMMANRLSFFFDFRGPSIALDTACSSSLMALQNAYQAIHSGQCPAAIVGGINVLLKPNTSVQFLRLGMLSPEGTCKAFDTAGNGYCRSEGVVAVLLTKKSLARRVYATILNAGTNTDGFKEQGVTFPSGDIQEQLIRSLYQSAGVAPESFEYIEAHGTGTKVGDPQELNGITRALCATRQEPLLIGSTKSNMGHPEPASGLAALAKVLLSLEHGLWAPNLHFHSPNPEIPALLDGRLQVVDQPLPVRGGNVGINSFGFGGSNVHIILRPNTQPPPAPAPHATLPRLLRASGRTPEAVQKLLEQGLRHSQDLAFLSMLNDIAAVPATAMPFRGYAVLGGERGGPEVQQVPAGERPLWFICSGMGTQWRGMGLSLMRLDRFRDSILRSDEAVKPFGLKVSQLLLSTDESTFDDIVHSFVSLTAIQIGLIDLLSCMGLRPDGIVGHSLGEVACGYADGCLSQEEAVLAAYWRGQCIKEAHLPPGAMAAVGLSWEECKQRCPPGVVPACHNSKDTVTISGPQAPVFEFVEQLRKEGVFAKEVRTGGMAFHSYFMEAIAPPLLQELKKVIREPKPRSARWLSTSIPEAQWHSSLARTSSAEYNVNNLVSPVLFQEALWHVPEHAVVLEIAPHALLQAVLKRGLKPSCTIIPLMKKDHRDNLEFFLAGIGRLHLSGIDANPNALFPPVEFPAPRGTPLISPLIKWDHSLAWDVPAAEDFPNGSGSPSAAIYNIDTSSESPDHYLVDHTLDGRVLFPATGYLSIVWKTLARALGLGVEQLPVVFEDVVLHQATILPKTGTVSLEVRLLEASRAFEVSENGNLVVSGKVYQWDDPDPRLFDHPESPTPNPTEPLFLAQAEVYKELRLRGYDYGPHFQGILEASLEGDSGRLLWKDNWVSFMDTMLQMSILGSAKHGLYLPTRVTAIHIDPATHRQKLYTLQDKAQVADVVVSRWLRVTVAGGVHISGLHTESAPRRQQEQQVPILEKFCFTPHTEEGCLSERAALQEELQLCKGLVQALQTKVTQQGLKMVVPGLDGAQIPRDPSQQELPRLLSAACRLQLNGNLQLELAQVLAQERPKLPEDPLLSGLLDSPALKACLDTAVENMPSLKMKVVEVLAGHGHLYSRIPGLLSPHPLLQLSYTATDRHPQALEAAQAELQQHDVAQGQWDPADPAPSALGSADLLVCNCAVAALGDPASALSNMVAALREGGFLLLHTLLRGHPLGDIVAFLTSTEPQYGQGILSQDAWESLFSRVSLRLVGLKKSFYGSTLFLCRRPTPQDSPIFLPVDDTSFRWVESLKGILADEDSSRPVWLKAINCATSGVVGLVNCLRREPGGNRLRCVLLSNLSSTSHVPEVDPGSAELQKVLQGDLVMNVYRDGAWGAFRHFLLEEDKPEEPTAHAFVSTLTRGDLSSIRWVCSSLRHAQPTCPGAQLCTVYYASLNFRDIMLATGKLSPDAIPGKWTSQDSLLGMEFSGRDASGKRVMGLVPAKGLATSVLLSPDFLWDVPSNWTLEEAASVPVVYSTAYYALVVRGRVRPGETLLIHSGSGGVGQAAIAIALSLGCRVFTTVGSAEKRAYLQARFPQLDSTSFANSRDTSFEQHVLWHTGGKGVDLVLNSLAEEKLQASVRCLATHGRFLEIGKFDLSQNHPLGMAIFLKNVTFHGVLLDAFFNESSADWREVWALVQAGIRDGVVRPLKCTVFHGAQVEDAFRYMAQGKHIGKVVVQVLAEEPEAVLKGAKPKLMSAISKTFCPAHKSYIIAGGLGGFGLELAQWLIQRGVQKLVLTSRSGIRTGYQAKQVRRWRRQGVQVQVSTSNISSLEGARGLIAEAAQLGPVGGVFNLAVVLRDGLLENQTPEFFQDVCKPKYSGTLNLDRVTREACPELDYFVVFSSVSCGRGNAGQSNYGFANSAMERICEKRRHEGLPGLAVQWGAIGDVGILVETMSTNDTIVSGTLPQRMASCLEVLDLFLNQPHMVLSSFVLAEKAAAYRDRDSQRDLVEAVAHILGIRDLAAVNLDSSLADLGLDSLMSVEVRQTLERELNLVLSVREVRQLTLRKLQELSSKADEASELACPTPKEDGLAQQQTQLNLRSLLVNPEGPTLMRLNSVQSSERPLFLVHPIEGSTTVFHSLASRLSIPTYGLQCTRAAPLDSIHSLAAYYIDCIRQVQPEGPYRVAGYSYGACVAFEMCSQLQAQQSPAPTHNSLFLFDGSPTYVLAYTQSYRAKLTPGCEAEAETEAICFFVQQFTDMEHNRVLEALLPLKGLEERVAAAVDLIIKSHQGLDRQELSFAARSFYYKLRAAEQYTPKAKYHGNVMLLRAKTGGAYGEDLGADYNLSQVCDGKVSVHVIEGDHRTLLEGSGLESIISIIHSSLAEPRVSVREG
Calls of active or inactive are those of the source. Rule for the calls: active = hit-call score of the fitted dose curve at least 0.9, where 1 is the maximum; inactive = score below 0.9.
Readout label: AC50

{"columns": ["Compound", "Reading"],
 "data": [
  ["O=C(O)COc1nc(Cl)c(Cl)cc1Cl", "inactive"],
  ["CNC(=S)S", "inactive"],
  ["COC(=O)C(C)Oc1ccc(Oc2ccc(Cl)cc2Cl)cc1 (stereo unspecified)", "inactive"],
  ["CC(C)Oc1cc(-n2nc(C(C)(C)C)oc2=O)c(Cl)cc1Cl", "inactive"],
  ["OC(c1ccc(Cl)cc1)(c1cncnc1)c1ccccc1Cl (stereo unspecified)", "87.3 µM (active)"],
  ["C#CCOS(=O)OC1CCCCC1Oc1ccc(C(C)(C)C)cc1 (stereo unspecified)", "27.5 µM (active)"],
  ["CCCCNC(=O)OCC#CI", "inactive"],
  ["CCNc1nc(Cl)nc(NC(C)C)n1", "inactive"],
  ["COP(N)(=O)SC (stereo unspecified)", "inactive"],
  ["Oc1ccccc1-c1ccccc1", "inactive"],
  ["Cc1ccc(-c2c(Cl)nc(C#N)n2S(=O)(=O)N(C)C)cc1", "9 µM (active)"],
  ["C=CCC1=C(C)C(OC(=O)C2C(C=C(C)C)C2(C)C)CC1=O (stereo unspecified)", "inactive"],
  ["N#Cc1cc(Br)c(O)c(Br)c1", "8.13 µM (active)"],
  ["COc1cnc(OC)n2nc(NS(=O)(=O)c3c(OCC(F)F)cccc3C(F)(F)F)nc12", "inactive"],
  ["CC(C)C1(C)N=C(c2nc3ccccc3cc2C(=O)O)NC1=O (stereo unspecified)", "inactive"],
  ["CC1=C(C(=O)Nc2ccccc2)SCCO1", "30.8 µM (active)"]
]}

====

assay: APR_HepG2_MitoMembPot_24hr: Apredica 24-hour HepG2 Assay for Mitochondrial Membrane Potential (AID 2282911); details: imaging, actives raise or lower the signal
Activity calls are given as the source filed them. How the source made its calls: active means hit-call score of the fitted dose curve at least 0.9, where 1 is the maximum; inactive means score below 0.9.
Outcomes: active, inactive

{"columns": ["Compound", "Qualitative label"],
 "data": [
  ["COc1cnc(OC)n2nc(NS(=O)(=O)c3c(OCC(F)F)cccc3C(F)(F)F)nc12", "inactive"],
  ["Oc1ccccc1-c1ccccc1", "inactive"],
  ["COC(=O)N(OC)c1ccccc1COc1ccn(-c2ccc(Cl)cc2)n1", "active"],
  ["CN(C)C(=S)SSC(=S)N(C)C", "inactive"],
  ["CC(C)C1(C)N=C(c2nc3ccccc3cc2C(=O)O)NC1=O (configuration not stated)", "inactive"],
  ["CS/C(C)=N/OC(=O)N(C)SN(C)C(=O)O/N=C(\\C)SC", "inactive"],
  ["COc1ccc(C(c2ccc(OC)cc2)C(Cl)(Cl)Cl)cc1", "inactive"],
  ["CC1COC(Cn2cncn2)(c2ccc(Oc3ccc(Cl)cc3)cc2Cl)O1 (configuration not stated)", "active"],
  ["C#CCOS(=O)OC1CCCCC1Oc1ccc(C(C)(C)C)cc1 (configuration not stated)", "active"],
  ["CCOP(=S)(OCC)SCn1c(=O)oc2cc(Cl)ccc21", "inactive"],
  ["CCCCC(CC)COC(=O)c1ccccc1C(=O)OCC(CC)CCCC (configuration not stated)", "inactive"],
  ["COc1nc(C)nc(NC(=O)NS(=O)(=O)c2ccccc2CCC(F)(F)F)n1", "inactive"],
  ["CCCCNC(=O)n1c(NC(=O)OC)nc2ccccc21", "inactive"],
  ["Fc1ccc(Oc2ccnc3cc(Cl)cc(Cl)c23)cc1", "inactive"],
  ["OC(c1ccc(Cl)cc1)(c1cncnc1)c1ccccc1Cl (configuration not stated)", "active"],
  ["N#Cc1nn(-c2c(Cl)cc(C(F)(F)F)cc2Cl)c(N)c1S(=O)C(F)(F)F (configuration not stated)", "inactive"],
  ["O=C(O)COc1nc(Cl)c(Cl)cc1Cl", "inactive"]
]}

====

test: Tanguay_ZF_120hpf_TR_legacy: (Legacy) Oregon State University Tanguay Lab 120 Hour Post-fertilization zebrafish Assay for Touch Response (AID 2283667)
Results filed as inconclusive are left out. Activity calls are given as the source filed them. Rule for the calls: active = hit-call score of the fitted dose curve at least 0.9, where 1 is the maximum; inconclusive = response in the unintended direction; inactive = score below 0.9.
Possible outcomes: active, inactive

{"columns": ["Compound", "Qualitative label"],
 "data": [
  ["CS/C(C)=N/OC(=O)N(C)SN(C)C(=O)O/N=C(\\C)SC", "inactive"],
  ["CN(C)C(=S)SSC(=S)N(C)C", "active"],
  ["CCOc1cc(Oc2ccc(C(F)(F)F)cc2Cl)ccc1[N+](=O)[O-]", "inactive"],
  ["CCCN(CCC)c1c([N+](=O)[O-])cc(S(N)(=O)=O)cc1[N+](=O)[O-]", "inactive"],
  ["O=C(O)COc1nc(Cl)c(Cl)cc1Cl", "inactive"],
  ["CNC(=O)ON=CC(C)(C)SC", "active"],
  ["CCNc1nc(Cl)nc(NCC)n1", "inactive"],
  ["CCON=C(CC)C1=C(O)CC(c2c(C)cc(C)cc2C)CC1=O (stereo unspecified)", "inactive"],
  ["N#Cc1cc(Br)c(O)c(Br)c1", "inactive"],
  ["OC(c1ccc(Cl)cc1)(c1cncnc1)c1ccccc1Cl (stereo unspecified)", "inactive"],
  ["CCOC(=O)C(Cl)Cc1cc(-n2nc(C)n(C(F)F)c2=O)c(F)cc1Cl (stereo unspecified)", "active"],
  ["Cc1c(F)c(F)c(COC(=O)C2C(/C=C(\\Cl)C(F)(F)F)C2(C)C)c(F)c1F (stereo unspecified)", "active"],
  ["CC(C)C1(C)N=C(c2nc3ccccc3cc2C(=O)O)NC1=O (stereo unspecified)", "inactive"],
  ["CCCCNC(=O)OCC#CI", "inactive"],
  ["CCCCNC(=O)n1c(NC(=O)OC)nc2ccccc21", "active"],
  ["Cc1ccc(-c2c(Cl)nc(C#N)n2S(=O)(=O)N(C)C)cc1", "inactive"]
]}

====

target: human Caspase 5 (CASP5), CASP5 (gene 838) (UniProt P51878); assay: NVS_ENZ_hCASP5: NovaScreen (NVS) Enzymatic Assay for human Caspase 5 (CASP5) (AID 2283137)
Sequence (P51878 whole entry, looked up): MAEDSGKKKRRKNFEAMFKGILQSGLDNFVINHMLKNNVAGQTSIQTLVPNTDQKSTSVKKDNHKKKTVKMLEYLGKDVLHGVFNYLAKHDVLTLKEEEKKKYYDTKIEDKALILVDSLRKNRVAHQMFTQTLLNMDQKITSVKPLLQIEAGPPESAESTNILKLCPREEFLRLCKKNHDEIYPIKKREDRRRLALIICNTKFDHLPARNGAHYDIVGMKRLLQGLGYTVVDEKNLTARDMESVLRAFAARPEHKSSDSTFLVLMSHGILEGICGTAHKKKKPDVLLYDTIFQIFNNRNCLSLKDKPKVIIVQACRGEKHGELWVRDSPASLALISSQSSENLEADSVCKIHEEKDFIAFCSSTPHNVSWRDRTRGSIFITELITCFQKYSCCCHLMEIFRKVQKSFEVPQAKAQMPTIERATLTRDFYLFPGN
Inconclusive results are not listed. Calls of active or inactive are those of the source. How the source made its calls: active means hit-call score of the fitted dose curve at least 0.9, where 1 is the maximum; inconclusive means response in the unintended direction; inactive means score below 0.9.

{"columns": ["Compound structure string", "outcome"],
 "data": [
  ["CNC(=S)S", "inactive"],
  ["CO/C=C(/C(=O)OC)c1ccccc1Oc1cc(Oc2ccccc2C#N)ncn1", "inactive"],
  ["O=C(Nc1ccccc1)Nc1ccnc(Cl)c1", "inactive"]
]}

====

read-out: Monocyte Chemoattractant Protein-1 (MCP1), CCL2 (gene 6347); experiment: BSK_3C_MCP1: BioMAP Diversity Plus: 3C Assay for Monocyte Chemoattractant Protein-1 (MCP1) Biomarker Activity (AID 2283017); conditions: primary human endothelial cells (HUVEC); actives raise or lower the signal
Calls of active or inactive are those of the source. How the source made its calls: active means hit-call score of the fitted dose curve at least 0.9, where 1 is the maximum; inactive means score below 0.9.
Readout label: outcome

{"columns": ["Compound", "Readout label", "Reading"],
 "data": [
  ["CCNc1nc(Cl)nc(NC(C)C)n1", "outcome", "inactive"],
  ["CCCC1COC(Cn2cncn2)(c2ccc(Cl)cc2Cl)O1 (stereo not drawn)", "outcome", "inactive"],
  ["CCCCC(CC)COC(=O)c1ccccc1C(=O)OCC(CC)CCCC (stereo not drawn)", "outcome", "inactive"]
]}

====

read-out: Alpha-fetoprotein (AFP) gene, AFP (gene 174); experiment: LTEA_HepaRG_AFP: Life Technologies and Expression Analysis (LTEA) Assay for Alpha-fetoprotein (AFP) gene using HepaRG (AID 2283472); settings: mRNA level, 48 h; actives raise or lower the signal
The source made the active and inactive calls. How the source made its calls: active means hit-call score of the fitted dose curve at least 0.9, where 1 is the maximum; inactive means score below 0.9.
Classes used: active, inactive

{"columns": ["Molecule", "Qualitative label"],
 "data": [
  ["COC(=O)c1ccccc1C(=O)OC", "inactive"],
  ["Cc1cc(Cl)ccc1OCC(=O)O", "inactive"],
  ["CCCC1COC(Cn2cncn2)(c2ccc(Cl)cc2Cl)O1 (centres undefined)", "active"],
  ["CCOc1cc(Oc2ccc(C(F)(F)F)cc2Cl)ccc1[N+](=O)[O-]", "active"],
  ["CC(C)Oc1cc(-n2nc(C(C)(C)C)oc2=O)c(Cl)cc1Cl", "active"],
  ["C=CCC1=C(C)[C@@H](OC(=O)[C@@H]2[C@@H](C=C(C)C)C2(C)C)CC1=O", "active"],
  ["COc1cnc(OC)n2nc(NS(=O)(=O)c3c(OCC(F)F)cccc3C(F)(F)F)nc12", "active"],
  ["CCCCC(CC)COC(=O)c1ccccc1C(=O)OCC(CC)CCCC (centres undefined)", "inactive"],
  ["Cc1ccc(-c2c(Cl)nc(C#N)n2S(=O)(=O)N(C)C)cc1", "active"]
]}
